FYI, the data here is from the RNAGym collection of RNA variant scans (doi:10.7554/elife.80360).

// reported self-cleavage per item
B1: HDV Ribozyme (parent)
chain: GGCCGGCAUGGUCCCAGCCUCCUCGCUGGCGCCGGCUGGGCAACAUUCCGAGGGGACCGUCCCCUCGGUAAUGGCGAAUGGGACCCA

Variants of: B1
Method Description: self-cleavage, relative activity (ratio to wild type); higher = more cleavage; co-transcriptional
Write the number on its own, no unit after it.

Look over these answered cases.
C21A A71U: 0.106
A45U C49G: 0.458

# self-cleavage of A56G C85G = 0.831

# self-cleavage of G6U C14U = 0.682

# self-cleavage of U37A G38U = 0.151

# self-cleavage of C7A U60C = 0.712
